Provenance of the data: ChEMBL document CHEMBL3988442

# TESTED SYSTEM: Proteasome subunit beta (Trypanosoma cruzi)
# EXPERIMENT: Trypanosoma cruzi proteasome chymotrypsin-like activity (TcProtChymo) assay.
# Format: functional
# Parameters: scale not given: in the data most compounds retested in dose-response had high values
# TEST CONTEXT: 9.37 µM
Catalogue of molecules with associated Percent Effect

- MOLECULE: "Cc1nc(C2CCCN(C(=O)CCCn3ccnc3C)C2)no1 (stereo unspecified)"
  UNIT ANNOTATION: "%"
  Percent Effect: -3.21
- MOLECULE: "CC(C)C(=O)NCCCn1ncc2c(Cl)cccc21"
  UNIT ANNOTATION: "%"
  Percent Effect: 4.33
- MOLECULE: "COc1ncc(C2(O)CCN(Cc3c(F)cccc3F)CC2)c(OC)n1"
  UNIT ANNOTATION: "%"
  Percent Effect: 13.3
- MOLECULE: "Cc1nnc(CN2CCN(CCOc3ccccc3C#N)CC2)n1C"
  UNIT ANNOTATION: "%"
  Percent Effect: 7.87
- MOLECULE: "CN(C)S(=O)(=O)N1CC[C@]2(C[C@H](Oc3cccnc3)CO2)C1"
  UNIT ANNOTATION: "%"
  Percent Effect: 23.7
- MOLECULE: "Cn1cnnc1C1CCCN(C(=O)NCCOc2ccccc2)C1 (stereo unspecified)"
  UNIT ANNOTATION: "%"
  Percent Effect: 15.9
- MOLECULE: "CCS(=O)(=O)CC(=O)NC(c1ccc(F)cc1)C1CCCC1 (stereo unspecified)"
  UNIT ANNOTATION: "%"
  Percent Effect: 17
- MOLECULE: "O=C1CC(c2ccccc2)c2c(n3ccsc3nc2=O)N1 (stereo unspecified)"
  UNIT ANNOTATION: "%"
  Percent Effect: 13.3
- MOLECULE: "CS(=O)(=O)Cc1cccc(C(=O)N2CCCC(n3cccn3)C2)c1 (stereo unspecified)"
  UNIT ANNOTATION: "%"
  Percent Effect: 4.69
- MOLECULE: "Cc1cnn(C2CCCN(C(=O)c3ccnc(-n4ccnc4)c3)C2)c1 (stereo unspecified)"
  UNIT ANNOTATION: "%"
  Percent Effect: 8.23
- MOLECULE: "Cc1cccnc1NC(=O)C(C)Cn1nc(C(F)(F)F)cc1C (stereo unspecified)"
  UNIT ANNOTATION: "%"
  Percent Effect: 11.8
- MOLECULE: "COc1ccccc1C(O)CNCc1c(C(C)C)nn(C)c1N(C)C (stereo unspecified)"
  UNIT ANNOTATION: "%"
  Percent Effect: 4.9
- MOLECULE: "O=C(CCc1ccccc1)N1CCn2cc(Cn3cncn3)nc2C1"
  UNIT ANNOTATION: "%"
  Percent Effect: 14.6
- MOLECULE: "Cc1cc(C)c(CNC(=O)N2CCN(c3cnccn3)CC2)c(=O)[nH]1"
  UNIT ANNOTATION: "%"
  Percent Effect: 12.2
- MOLECULE: "Cc1ccc(S(=O)(=O)N2C[C@H]3C[C@H](NC(=O)c4ccnn4C)[C@H]3C2)cc1"
  UNIT ANNOTATION: "%"
  Percent Effect: -3.28
- MOLECULE: "O=C(O)c1cc(NS(=O)(=O)c2cccc(Cl)c2F)ccc1Cl"
  UNIT ANNOTATION: "%"
  Percent Effect: 5.57
- MOLECULE: "CC(=O)N1CCC2(CCCN(Cc3ccc(Cl)c(C(F)(F)F)c3)C2)C1 (stereo unspecified)"
  UNIT ANNOTATION: "%"
  Percent Effect: 1.15
- MOLECULE: "O=C(Nc1cc(C(F)(F)F)c[nH]c1=O)c1ccco1"
  UNIT ANNOTATION: "%"
  Percent Effect: 10.9
- MOLECULE: "COc1cc(C(=O)N2CCCS2(=O)=O)cc(Cl)c1OC"
  UNIT ANNOTATION: "%"
  Percent Effect: 9.07
- MOLECULE: "CCn1nc2c(cc1=O)CN(Cc1nc(CCOC)no1)CC2"
  UNIT ANNOTATION: "%"
  Percent Effect: 0.427
- MOLECULE: "CN1CCN(c2ncccc2CNc2ncccc2C#N)CC1"
  UNIT ANNOTATION: "%"
  Percent Effect: 3.86
- MOLECULE: "Cc1ccc(CC(=O)N2CCc3nnc(N(C)C)cc3C2)cn1"
  UNIT ANNOTATION: "%"
  Percent Effect: 13.6
- MOLECULE: "CCN1CCO[C@]2(CCC[C@H]2COCc2csc(C)n2)C1"
  UNIT ANNOTATION: "%"
  Percent Effect: 3.27
- MOLECULE: "CC(Cn1ccnc1)NC(=O)N1CCN(Cc2cccnc2)CC1 (stereo unspecified)"
  UNIT ANNOTATION: "%"
  Percent Effect: 11.5
- MOLECULE: "CCc1nc(N)sc1C(=O)N1CCCC(CCc2ccccc2C)C1 (stereo unspecified)"
  UNIT ANNOTATION: "%"
  Percent Effect: 10.6
- MOLECULE: "CC(CCc1ccco1)NC(=O)Nc1cc(C(F)(F)F)c[nH]c1=O (stereo unspecified)"
  UNIT ANNOTATION: "%"
  Percent Effect: 13.1
- MOLECULE: "Cc1cccc(C)c1OCCC(=O)N1CCC(c2nncn2C)CC1"
  UNIT ANNOTATION: "%"
  Percent Effect: 6.76
- MOLECULE: "N#Cc1ccccc1N1CCCN(C(=O)CCc2nccs2)CC1"
  UNIT ANNOTATION: "%"
  Percent Effect: 3.36
- MOLECULE: "CC(C)(C)c1nnc(CN2CCOC(Cn3cccn3)C2)o1 (stereo unspecified)"
  UNIT ANNOTATION: "%"
  Percent Effect: 5.16
- MOLECULE: "Cc1cc(S(=O)(=O)N2CCc3ccc(F)cc32)cc(C(=O)O)c1C"
  UNIT ANNOTATION: "%"
  Percent Effect: 6.87
- MOLECULE: "CCn1nnc2c1C(COC)CN(Cc1ccsc1)C2 (stereo unspecified)"
  UNIT ANNOTATION: "%"
  Percent Effect: 10.2
- MOLECULE: "Cc1ccc(S(=O)(=O)N2C[C@@H]3C[C@@H](NC(=O)C(C)(C)C)[C@@H]3C2)cc1"
  UNIT ANNOTATION: "%"
  Percent Effect: 12.3
- MOLECULE: "Cc1cccn2c(=O)cc(CN3CCCCC3Cn3cncn3)nc12 (stereo unspecified)"
  UNIT ANNOTATION: "%"
  Percent Effect: 9.53
- MOLECULE: "FC(F)(F)Cc1noc(CN2CCCC2c2noc(C3CC3)n2)n1 (stereo unspecified)"
  UNIT ANNOTATION: "%"
  Percent Effect: 5.59
- MOLECULE: "Cc1nn2cccnc2c1C(=O)N1CCCC(n2ccnc2)C1 (stereo unspecified)"
  UNIT ANNOTATION: "%"
  Percent Effect: 8.23
- MOLECULE: "CC1N(CC2CC2)C(=O)COC12CCN(Cc1nccs1)CC2 (stereo unspecified)"
  UNIT ANNOTATION: "%"
  Percent Effect: 11.2
- MOLECULE: "CCn1nc(C)c2nnn(CC(=O)Nc3c(C)cccc3C)c(=O)c21"
  UNIT ANNOTATION: "%"
  Percent Effect: 5.73
- MOLECULE: "O=C(c1ccc[nH]1)N1C[C@H](OCc2cccnc2)[C@H]2COC[C@H]21"
  UNIT ANNOTATION: "%"
  Percent Effect: 12.3
- MOLECULE: "Cn1c(C2CC2)nc2c1CCN(CC(=O)Nc1nncs1)C2"
  UNIT ANNOTATION: "%"
  Percent Effect: 3.72
- MOLECULE: "O=C(NCCOc1ccc2c(c1)OCO2)N1CCC1"
  UNIT ANNOTATION: "%"
  Percent Effect: 19.1
- MOLECULE: "O=C(COc1ccccc1)N1CCC[C@]2(C[C@H](OCC3CC3)CO2)C1"
  UNIT ANNOTATION: "%"
  Percent Effect: 22.1
- MOLECULE: "COc1ccc(CN2C[C@H]3CN(c4ccsc4)C(=O)[C@H]3C2)cc1"
  UNIT ANNOTATION: "%"
  Percent Effect: 19
- MOLECULE: "Cc1nc(C)c(C(=O)NCCNC(=O)c2ccc(F)cc2F)s1"
  UNIT ANNOTATION: "%"
  Percent Effect: 15.8
- MOLECULE: "Cn1cc(C2CC(=O)NC23CCN(CC2CC2)CC3)cn1 (stereo unspecified)"
  UNIT ANNOTATION: "%"
  Percent Effect: 10.1
- MOLECULE: "Cn1cc(CN2C[C@@H]3COC[C@]3(CNC(=O)c3ccsc3)C2)cn1"
  UNIT ANNOTATION: "%"
  Percent Effect: 9.27
- MOLECULE: "O=C1CC[C@H]2CN(Cc3ccc(Cl)s3)CC[C@H]2N1CCc1c[nH]cn1"
  UNIT ANNOTATION: "%"
  Percent Effect: 11.9
